# Experiment notes: MRT (0 to infinity) in mouse at 3 mg/kg, iv by LC-MS/MS analysis
# Format: ADME, organism-based
# Applied conditions: in vivo
Property measured: MRT inf (h)
Answer format: numeric, h implied, no suffix.

Q. Returns the measured MRT inf for the input molecule. Input: COCCN[C@H]1CC[C@H](Nc2cc(-c3csc(NCC4(C#N)CCOCC4)n3)c(Cl)cn2)CC1
A. 1.58

###

# Experiment notes: Antiproliferative activity against Chinese hamster CHL cells after 72 hrs by Celltiter-Glo assay
# Applied conditions: Cricetulus griseus
Property: GI50; scope: individual molecules
The answer is to be given in µM; state only the numeric part.

# annotated cases, reported GI50 shown
Molecule	Property measured	Reading unit	Recorded value
COCCN[C@H]1CC[C@H](Nc2cc(-c3csc(OCC4CCOCC4)n3)c(Cl)cn2)CC1	GI50	µM	3.3
COCCN[C@H]1CC[C@H](Nc2cc(-c3csc(NCC(F)(F)F)n3)c(Cl)cn2)CC1	GI50	µM	0.877
COCCN[C@H]1CC[C@H](Nc2cc(-c3csc(SCC4CCOCC4)n3)c(Cl)cn2)CC1	GI50	µM	5.6
COC[C@H](C)N[C@H]1CC[C@H](Nc2cc(-c3csc(NCC4(C#N)CCOCC4)n3)c(Cl)cn2)CC1	GI50	µM	1.25
COCCN[C@H]1CC[C@H](Nc2cc(-c3csc(NCC4CCCCC4)n3)c(Cl)cn2)CC1	GI50	µM	8

Q. What value of GI50 has been reported for the following molecule? COC[C@@H](C)N[C@H]1CC[C@H](Nc2cc(-c3csc(NCC4CCOCC4)n3)c(Cl)cn2)CC1
A. 1.1

Q. Thanks! And CNc1nc(-c2cc(N[C@H]3CC[C@H](NCCOC)CC3)ncc2Cl)cs1 ?
A. 1.9

Q. // same read-out, input: CCOCCN[C@H]1CC[C@H](Nc2cc(-c3csc(NCC4CCOCC4)n3)c(Cl)cn2)CC1
A. 2.82

Q. Quick one: COCCN[C@H]1CC[C@H](Nc2cc(-c3csc(NCc4ccccc4)n3)c(Cl)cn2)CC1
A. 1

Q. Param item: COCCN[C@H]1CC[C@H](Nc2cc(-c3csc(NCC4CCOCC4)n3)c(Cl)cn2)CC1
A. 0.534

###

# Target under test: UniProt:P50750
# Experiment notes: Inhibition of CDK9 in human MEC1 cells assessed as decrease in RNA polymerase 2 phosphorylation at Ser 2 residues in CTD domain after 2 hrs by immunoblotting analysis
# Assay type: cell-based
Property measured: EC50

Q. Requested field: EC50. Item: COCCN[C@H]1CC[C@H](Nc2cc(-c3csc(NCC4(C#N)CCOCC4)n3)c(Cl)cn2)CC1
A. < 100 nM

###

# Target under test: Cyclin-dependent kinase 14/Cyclin-Y (Homo sapiens, UniProt O94921)
# Sequence (O94921 whole entry): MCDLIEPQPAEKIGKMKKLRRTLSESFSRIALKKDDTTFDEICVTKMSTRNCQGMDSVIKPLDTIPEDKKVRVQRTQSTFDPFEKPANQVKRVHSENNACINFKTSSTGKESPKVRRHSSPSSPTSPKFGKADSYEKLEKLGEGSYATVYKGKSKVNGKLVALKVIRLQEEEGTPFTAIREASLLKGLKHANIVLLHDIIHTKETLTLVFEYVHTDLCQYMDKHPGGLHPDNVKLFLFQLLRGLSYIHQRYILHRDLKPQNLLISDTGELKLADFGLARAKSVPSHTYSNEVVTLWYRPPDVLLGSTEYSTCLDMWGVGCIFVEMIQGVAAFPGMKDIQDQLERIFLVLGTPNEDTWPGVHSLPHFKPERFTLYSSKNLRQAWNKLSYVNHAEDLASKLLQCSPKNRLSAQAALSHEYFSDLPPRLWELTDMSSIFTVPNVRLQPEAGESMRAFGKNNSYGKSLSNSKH
# Sequence (Q8ND76 whole entry, further chain): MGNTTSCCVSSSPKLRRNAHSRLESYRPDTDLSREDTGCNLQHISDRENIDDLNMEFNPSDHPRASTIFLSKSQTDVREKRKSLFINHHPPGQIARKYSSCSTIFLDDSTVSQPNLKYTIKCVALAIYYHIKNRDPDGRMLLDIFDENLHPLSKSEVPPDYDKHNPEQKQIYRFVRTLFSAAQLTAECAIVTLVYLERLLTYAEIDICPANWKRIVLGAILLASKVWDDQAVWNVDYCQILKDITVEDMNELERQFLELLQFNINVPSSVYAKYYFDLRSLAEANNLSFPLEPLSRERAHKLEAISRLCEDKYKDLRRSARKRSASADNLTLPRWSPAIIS
# Experiment notes: Inhibition of recombinant GST-tagged human full length CDK14/cyclin Y (2 to end residues)
Property measured: pIC50
Just so you know, pIC50 here is -log10 of the concentration in molar units; reply with that number alone.

Q. Record request: pIC50 value, item COCCN[C@H]1CC[C@H](Nc2cc(-c3csc(NCC4(C#N)CCOCC4)n3)c(Cl)cn2)CC1
A. 5.77

###

# Experiment notes: Antiproliferative activity against Chinese hamster CHL cells after 72 hrs by Celltiter-Glo assay
# Applied conditions: Cricetulus griseus
Property measured: GI50

Use these answered entries as a reference point.
Fc1cc(-c2csc(NCC3CCOCC3)n2)c(Cl)cn1 > 10 µM
COCCNc1cc(-c2csc(NCC3CCOCC3)n2)c(Cl)cn1 > 10 µM
CC(C)(C)OC(=O)Nc1nc(-c2cc(F)ncc2Cl)cs1 > 10 µM
COCC(=O)N[C@H]1CC[C@H](Nc2cc(-c3csc(NCC4CCOCC4)n3)c(Cl)cn2)CC1 > 10 µM
COCCN[C@H]1CC[C@H](Nc2cc(-c3csc(NCC4CCOCC4)n3)c(C)cn2)CC1 5.01 µM

For the next question, use this molecule.
Q. Can you look up the measured GI50 of Clc1cnc(Nc2ccccc2)cc1-c1csc(NCC2CCOCC2)n1 for me?
A. > 10 µM

###

# Experiment notes: Cmax in beagle dog at 10 mg/kg, po by LC-MS/MS analysis
# Format: ADME, organism-based, Canis lupus familiaris
# Set-up: dose 10 mg/kg, route oral
# Applied conditions: in vivo
Property measured: Cmax (ng/mL)
Unit ng/mL implied. Number only.

Q. Find the recorded Cmax belonging to COCCN[C@H]1CC[C@H](Nc2cc(-c3csc(NCC4(C#N)CCOCC4)n3)c(Cl)cn2)CC1 and report it.
A. 771

###

# Experiment notes: Half life in beagle dog at 10 mg/kg, po by LC-MS/MS analysis
# Assay type: ADME, organism-based, Canis lupus familiaris
# Applied conditions: in vivo
Property measured: half-life (h)
Record the value in h, omitting the unit from your answer.

Q. # input molecule: COCCN[C@H]1CC[C@H](Nc2cc(-c3csc(NCC4(C#N)CCOCC4)n3)c(Cl)cn2)CC1 ; wanted: its half-life
A. 20.4

###

# Experiment notes: Clearance in mouse at 3 mg/kg, iv by LC-MS/MS analysis
# Format: ADME, organism-based
# Applied conditions: in vivo
Property measured: clearance (mL/min/kg)
Reply numerically in mL/min/kg, unit not repeated.

Q. Find the recorded clearance belonging to COCCN[C@H]1CC[C@H](Nc2cc(-c3csc(NCC4(C#N)CCOCC4)n3)c(Cl)cn2)CC1 and report it.
A. 123

###

# Experiment notes: MRT (0 to infinity) in Sprague-Dawley rat at 3 mg/kg, iv by LC-MS/MS analysis
# Type: ADME, organism-based
# Applied conditions: in vivo
Property measured: MRT inf
The reply should consist of the numeric value with the unit placed after it.

Q. Name the reported MRT inf value associated with the molecule COCCN[C@H]1CC[C@H](Nc2cc(-c3csc(NCC4(C#N)CCOCC4)n3)c(Cl)cn2)CC1
A. 6.33 h

###

# Experiment notes: AUC (0 to t) in Sprague-Dawley rat at 3 mg/kg, iv by LC-MS/MS analysis
# Type: ADME, organism-based
# Applied conditions: in vivo
Property measured: AUC(0-t) (ng·h/mL)
Give the quantity in ng·h/mL, number only.

Q. Find the recorded AUC(0-t) belonging to COCCN[C@H]1CC[C@H](Nc2cc(-c3csc(NCC4(C#N)CCOCC4)n3)c(Cl)cn2)CC1 and report it.
A. 625

###

# Experiment notes: AUC (0 to infinity) in Sprague-Dawley rat at 20 mg/kg, po by LC-MS/MS analysis
# Assay type: ADME, organism-based
# Set-up: dose 20 mg/kg, route oral, time infinity
# Applied conditions: in vivo
Property measured: AUC(0-inf) (ng·h/mL)
State the answer as a number, implicitly in ng·h/mL.

Q. Query (compound): COCCN[C@H]1CC[C@H](Nc2cc(-c3csc(NCC4(C#N)CCOCC4)n3)c(Cl)cn2)CC1 ; field requested: AUC(0-inf)
A. 1990

###

# Target under test: CDK9/Cyclin K (Homo sapiens, UniProt P50750)
# Sequence (P50750 whole entry): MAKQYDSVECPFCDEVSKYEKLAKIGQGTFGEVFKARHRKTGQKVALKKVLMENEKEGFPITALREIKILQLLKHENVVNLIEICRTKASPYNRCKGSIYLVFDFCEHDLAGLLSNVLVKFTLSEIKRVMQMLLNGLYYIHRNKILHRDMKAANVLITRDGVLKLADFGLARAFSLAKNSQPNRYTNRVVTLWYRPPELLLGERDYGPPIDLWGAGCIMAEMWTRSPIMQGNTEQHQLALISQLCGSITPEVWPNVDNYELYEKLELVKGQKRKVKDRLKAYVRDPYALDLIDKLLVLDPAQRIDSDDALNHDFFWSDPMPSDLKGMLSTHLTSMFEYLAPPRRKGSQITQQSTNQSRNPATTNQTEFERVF
# Sequence (O75909 whole entry, further chain): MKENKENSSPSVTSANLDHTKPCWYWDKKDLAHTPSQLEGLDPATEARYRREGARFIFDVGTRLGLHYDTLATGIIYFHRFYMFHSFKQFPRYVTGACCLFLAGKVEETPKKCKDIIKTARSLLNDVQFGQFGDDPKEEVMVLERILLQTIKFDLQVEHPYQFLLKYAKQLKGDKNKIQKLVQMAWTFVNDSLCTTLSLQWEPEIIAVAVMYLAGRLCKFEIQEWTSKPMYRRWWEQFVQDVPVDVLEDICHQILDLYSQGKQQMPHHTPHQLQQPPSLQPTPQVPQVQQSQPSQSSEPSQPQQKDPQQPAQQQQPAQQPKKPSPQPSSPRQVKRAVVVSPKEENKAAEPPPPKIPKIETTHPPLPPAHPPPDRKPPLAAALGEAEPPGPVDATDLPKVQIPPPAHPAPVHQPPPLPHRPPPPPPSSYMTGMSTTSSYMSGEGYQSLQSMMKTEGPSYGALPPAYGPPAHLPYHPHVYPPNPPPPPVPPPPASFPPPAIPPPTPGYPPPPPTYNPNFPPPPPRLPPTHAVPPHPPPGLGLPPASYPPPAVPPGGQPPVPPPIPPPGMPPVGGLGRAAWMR
# Experiment notes: Inhibition of CDK9/Cyclin K (unknown origin) using PDKtide as substrate incubated at 37 degreeC for 1 hr followed by incubation at room temperature for 5 mins by ADP-Glo reagent based luminescence assay
pIC50: −log10 of the molar value.
Use 7 as the dividing line for pIC50, with the line itself on the y side and lower values as n.

COCCN[C@H]1CC[C@H](Nc2cc(-c3csc(NCc4ccc(F)cc4)n3)c(Cl)cn2)CC1 y
COC[C@H](C)N[C@H]1CC[C@H](Nc2cc(-c3csc(NCC4CCOCC4)n3)c(Cl)cn2)CC1 n
COCC(=O)N[C@H]1CC[C@H](Nc2cc(-c3csc(NCC4CCOCC4)n3)c(Cl)cn2)CC1 n
COCCN[C@H]1CC[C@H](Nc2cc(-c3csc(NCC(F)(F)F)n3)c(Cl)cn2)CC1 y
CCOCCN[C@H]1CC[C@H](Nc2cc(-c3csc(NCC4CCOCC4)n3)c(Cl)cn2)CC1 y
COCCN[C@H]1CC[C@H](Nc2cc(-c3csc(NCC4CCOCC4)n3)c(Cl)cn2)CC1 y
COCCN[C@H]1CC[C@H](Nc2cc(-c3csc(SCC4CCOCC4)n3)c(Cl)cn2)CC1 y
COCCN[C@H]1CC[C@H](Nc2cc(-c3csc(NCC4CCOCC4)n3)c(C)cn2)CC1 n
N[C@H]1CC[C@H](Nc2cc(-c3csc(NCC4CCOCC4)n3)c(Cl)cn2)CC1 y
COCCN[C@H]1CC[C@H](Nc2cc(-c3csc(NCC4CCCCC4)n3)c(Cl)cn2)CC1 y

# next molecule below
Q. Form field: pIC50 at least 7? Entry: COC[C@@H](C)N[C@H]1CC[C@H](Nc2cc(-c3csc(NCC4(C#N)CCOCC4)n3)c(Cl)cn2)CC1
A. y

These data points were gathered from ChEMBL document CHEMBL4261600.
